- SYSTEM_UNDER_TEST: T1, Cynomolgus monkey CD98 ECD with C-terminal His-tag (cynomolgus monkey, UniProt P08195 105-529 (human entry))
- T1 construct: The entry includes the linker and the polyhistidine tag; also called cyCD98 ECD
- T1 chain: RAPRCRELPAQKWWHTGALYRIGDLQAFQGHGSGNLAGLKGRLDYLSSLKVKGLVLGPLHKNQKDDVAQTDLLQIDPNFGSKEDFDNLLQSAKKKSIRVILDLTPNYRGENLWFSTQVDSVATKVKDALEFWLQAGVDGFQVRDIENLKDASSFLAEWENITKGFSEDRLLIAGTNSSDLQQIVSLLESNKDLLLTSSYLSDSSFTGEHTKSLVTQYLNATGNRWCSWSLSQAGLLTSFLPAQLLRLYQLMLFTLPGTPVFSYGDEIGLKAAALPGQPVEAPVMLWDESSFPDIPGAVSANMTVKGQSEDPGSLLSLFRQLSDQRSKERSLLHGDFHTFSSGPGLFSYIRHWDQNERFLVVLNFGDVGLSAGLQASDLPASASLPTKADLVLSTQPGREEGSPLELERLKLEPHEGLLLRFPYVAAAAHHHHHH
- ASSAY_INFO: SPR (Biacore), antibody captured on anti-Fc surface, CD98 ECD in solution
MEASURE_NAME: kon (M⁻¹ s⁻¹)
One number for each entry, in M⁻¹ s⁻¹.

Please give the measured kon for this binder: huAb15v3 (antibody, V domains shown, Humanized, further engineered clone of chAb15, converted to IgG and expressed as a full-length antibody) VH: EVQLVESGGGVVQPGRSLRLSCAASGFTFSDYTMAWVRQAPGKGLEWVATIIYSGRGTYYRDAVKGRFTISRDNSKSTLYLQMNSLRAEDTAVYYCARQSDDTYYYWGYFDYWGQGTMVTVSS VL: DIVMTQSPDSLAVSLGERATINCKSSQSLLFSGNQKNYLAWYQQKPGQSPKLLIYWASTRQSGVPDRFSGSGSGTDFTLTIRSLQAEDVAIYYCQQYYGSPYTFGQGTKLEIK
18000
